- Tested on: Acinetobacter baumannii ATCC 17978
- Assay text: Antimicrobial susceptibility testing: 90% growth inhibitory concentration (IC90) determination
- Type: cell-based
- Experimental setup: Acinetobacter baumannii, ATCC17978, 16 h, 90% growth inhibitory concentration; Acinetobacter baumannii ATCC17978; Iso-Sensitest broth, OD 600 nm over 16h; read-out: ATCC17978 IC90
- Method: Antimicrobial Susceptibility Testing: 90% Growth Inhibitory Concentration (IC90) Determination The in vitro antimicrobial activity of the compounds was determined according to the following procedure: The assay used a 10-points Iso-Sensitest broth medium to measure quantitatively the in vitro activity of the compounds against Acinetobacter baumannii ATCC 17978 and Acinetobacter baumannii ATCC 17961. […]
Structures can show the parent of a compound that is named as a salt.
Please provide measured IC90 for the entries that follow.
Your answer is read as nM, so omit the unit and give the number.

Query block: Param readout = IC90; param system = Acinetobacter baumannii ATCC 17978; param query = COc1ccc(-c2cnc3c(Nc4ccc(C(=O)NCCCN)c(C)c4)nccn23)cc1 [Example 51, hydrochloride] ; response: value
Result block: 960

Query block: Param readout = IC90; param system = Acinetobacter baumannii ATCC 17978; param query = COc1ccc(-c2cnc3c(Nc4ccc(C(=O)NCCN5CCNCC5)cc4)nccn23)cc1Cl [Example 30, hydrochloride] ; response: value
Result block: 3700

Query block: Param readout = IC90; param system = Acinetobacter baumannii ATCC 17978; param query = CCc1cc(Nc2nccn3c(-c4ccc(OCC#N)c(F)c4F)cnc23)ccc1C(=O)NCCNC(=O)[C@@H](N)CO [Example 135, formate] ; response: value
Result block: 90

Query block: Param readout = IC90; param system = Acinetobacter baumannii ATCC 17978; param query = COc1ccc(-c2cnc3c(Nc4ccc(C(=O)N(C)CCO)cc4)nccn23)cc1 ; response: value
Result block: 1000

Query block: Param readout = IC90; param system = Acinetobacter baumannii ATCC 17978; param query = N#CCOc1ccc(-c2cnc3c(Nc4ccc(C(=O)NCCCCCCN)c(Cl)c4)nccn23)c(F)c1F ; response: value
Result block: 25

Query block: Param readout = IC90; param system = Acinetobacter baumannii ATCC 17978; param query = COc1ccc(-c2cnc3c(Nc4ccc(C(=O)N(C)CCc5ncc[nH]5)c(C)c4)nccn23)cc1F ; response: value
Result block: 960

Query block: Param readout = IC90; param system = Acinetobacter baumannii ATCC 17978; param query = CCc1cc(Nc2nccn3c(-c4ccc(OC)c(F)c4F)cnc23)ccc1C(=O)NCCNC(=O)[C@@H](N)CCNC(=N)N [Example 131, formate] ; response: value
Result block: 90

Origin of the recorded values: patent US20230012368A1
